Test system: NCI/ADR-RES ovarian
method_notes: NCI-60 one-dose screen, 48 h (100 = growth as untreated, 0 = no growth, -100 = all killed)
cond: 10 µM unless noted
The panel holds about 83,000 compounds, 20% with a hit somewhere; the sample as a whole holds those more often.
Give growth for every item shown.
Answers are plain numbers, in %.

CC(C)c1cc(C(C)C)c(S(=O)(=O)Oc2ccc(NC(=O)c3ccc(Cl)cc3)cc2)c(C(C)C)c1: 35.6
Cc1ccc(C(CC(=O)O)c2c(C)[nH][nH]c2=O)cc1 (stereo not drawn): 102

Here's the next entry for you.
growth for NCI/ADR-RES ovarian with input COc1cc(OCc2cccc(-c3ccc(C(O)c4nccs4)cc3)c2C)cc(OC)c1CNCCNC(C)=O (stereo not drawn) equals 101

====

Test system: SK-MEL-2 melanoma
method_notes: NCI-60 one-dose screen, 48 h (100 = growth as untreated, 0 = no growth, -100 = all killed)
cond: 10 µM unless noted
This is part of a sample that, as a whole, favours compounds with a hit. Of some 83,000 tested, about 20% had one in any assay.
Give growth for every item shown.
Answers are plain numbers, in %.

CCOC(=O)c1cn2ncnc(Oc3ccc(NC(=O)NCCN4CCN(C)CC4)c(Cl)c3)c2c1C: 91.9
C=C1C(=O)O[C@H]2[C@H]1CC/C(COC(=O)CCSSCCC(=O)OC/C1=C/CC[C@@]3(C)O[C@H]3[C@H]3OC(=O)C(=C)[C@@H]3CC1)=C\CC[C@@]1(C)O[C@@H]21: 52.4

Could I get growth for every one of these entries?
1. O=c1c2cc(F)ccc2sc2c(N3CCCCC3)nc3ccccc3c12
2. Cc1c(C(=O)/C=C/Nc2c(Cl)cc(S(N)(=O)=O)cc2Cl)sc2nc3ccccc3n12

Result:
115
109

====

System: HOP-92 NSCLC
method_notes: NCI-60 one-dose screen, 48 h
cond: 10 µM unless noted
This is part of a sample that, as a whole, favours compounds with a hit. Of some 83,000 tested, about 20% had one in any assay. Active and inactive are the calls of the source. How the source made its calls: active means growth percent below 10; inactive means the rest.
Respond only with the outcome that fits, drawn from label 1 for active, label 0 for inactive

Answered examples (3):
O=C1/C(=C/c2ccc(F)cc2)Sc2c(Br)cccc21: label 1
CCC(C)(c1cc(C(C)(C)C)c(O)c(C(C)(C)C)c1)c1cc(C(C)(C)C)c(O)c(C(C)(C)C)c1: label 0
O=C(Cc1ccc(F)c(Cl)c1)Nc1cc(C2(C(F)(F)F)CC2)nn1CC1CCCCC1: label 1

Turning now to a further record.
Task: What call does the record list for C=C(C)[C@@H]1CC[C@]2(N=C=O)CC[C@]3(C)[C@H](CC[C@@H]4[C@@]5(C)Cc6c([nH]c7ccccc67)C(C)(C)[C@@H]5CC[C@]43C)[C@@H]12 ?
Result: label 0

====

Tested on: COLO 205 colon
method_notes: NCI-60 one-dose screen, 48 h (100 = growth as untreated, 0 = no growth, -100 = all killed)
cond: 10 µM unless noted
Compounds without any hit were thinned out: in the full panel of roughly 83,000, 20% have a hit.
Binary classification by growth, with 80% as an inclusive lower bound for YES; all other cases are NO.

Cc1c(C(=O)NCCN2CCOCC2)cn2ncnc(Oc3ccc(NC(=O)Nc4ccc(Cl)c(C(F)(F)F)c4)cc3)c12: NO
S=c1nc(-c2ccccc2)oc(=NC2CCCCC2)n1C1CCCCC1: NO
O=C(CSc1nc2ccccc2[nH]1)Nc1cccc(Cl)c1: YES
CC1Cc2ccccc2N1NC(=O)c1ccc(Cl)c(S(N)(=O)=O)c1 (stereo not given): YES
CNC(C)[C@H]1CCC2C3CCC4C[C@@H](N(C)C(=O)c5ccccc5)CC[C@]4(C)C3CC[C@@]21C (stereo not given in full): NO

Turning now to a further record.
Task: Does CCCCCCNC(=O)Oc1ccc(/C(=C(\C)c2ccc(OC)cc2)c2ccc(OCCN3CCCCC3)cc2)cc1 have a reported growth of at least 80%?
Result: NO
